Molecular target: T1, TNFR1 (Homo sapiens, UniProt P19438)
T1 chain: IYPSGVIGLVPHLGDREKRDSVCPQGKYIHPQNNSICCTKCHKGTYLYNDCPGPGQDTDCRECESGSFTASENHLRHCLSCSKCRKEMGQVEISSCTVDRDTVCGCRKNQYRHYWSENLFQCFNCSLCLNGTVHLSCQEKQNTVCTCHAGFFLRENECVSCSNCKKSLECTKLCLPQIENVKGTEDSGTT
Experiment: yeast display SC50
What apparent Kd (screen) was measured for each of the following?
Kindly answer with a numeric value in nM, unit omitted.

Entry under review: A23M (designed binder) MTLQELLREEALRRAEAEAFRYMLELLAEKFPEQKEYLLDLAEEIESQIRSLSGVDVEDVRKFLDKEWAWVKELLAEHPAELAEVEAARAARLAELRAEVEAKVAA . Reported apparent Kd (screen)? 0.539

Item: R50Q (designed binder) MTLQELLREEALRRAEAEAFRYALELLAEKFPEQKEYLLDLAEEIESQIQSLSGVDVEDVRKFLDKEWAWVKELLAEHPAELAEVEAARAARLAELRAEVEAKVAA 0.49

Item: R61C (designed binder) MTLQELLREEALRRAEAEAFRYALELLAEKFPEQKEYLLDLAEEIESQIRSLSGVDVEDVCKFLDKEWAWVKELLAEHPAELAEVEAARAARLAELRAEVEAKVAA 0.956

Item: E58N (designed binder) MTLQELLREEALRRAEAEAFRYALELLAEKFPEQKEYLLDLAEEIESQIRSLSGVDVNDVRKFLDKEWAWVKELLAEHPAELAEVEAARAARLAELRAEVEAKVAA 0.49
